Entries and their pIC50 values follow.
# Tested on: Fibroblast
# method.notes: Cytotoxicity against human Fibroblast assessed as reduction in cell viability incubated for 48 hrs by cell titer-glo assay
# Assay type: cell-based
pIC50: −log10 of the molar value.

{"smiles.data": "c1ccc(CN(CCN(Cc2ccccn2)Cc2ccccn2)Cc2ccccn2)nc1", "pIC50": 5.17}
{"smiles.data": "c1ccc(CNCCN(CCNCc2ccccn2)Cc2ccc3ccccc3c2)nc1", "pIC50": 4.53}
{"smiles.data": "CN(CCNCc1ccccn1)CCNCc1ccccn1", "pIC50": 4.69}

----------
# System: LN-229
# method.notes: Metal chelating activity in human LN229 cells assessed as decrease in intracellular concentration of labile zinc ions by measuring reduction in zinquin-Zn2+ complex formation incubated for 12 hrs followed by incubation with fluorophore-zinquin for 30 mins by spectrofluorometric analysis
# Type: cell-based
The source made the active and inactive calls. The calls are words filed in the database; no cut-off is given here.
Classes used: label 1 (active), label 0 (inactive)

{"smiles.data": "c1ccc2cc(CN(CCNCc3ccncc3)CCNCc3ccncc3)ccc2c1", "tgt": "LN-229", "group.label": "label 0"}
{"smiles.data": "O=S(=O)(c1cccc2ccccc12)N(CCNCc1ccccn1)CCNCc1ccccn1", "tgt": "LN-229", "group.label": "label 0"}
{"smiles.data": "CN(CCNCc1ccncc1)CCNCc1ccncc1", "tgt": "LN-229", "group.label": "label 0"}
{"smiles.data": "c1cncc(CNCCN(CCNCc2cccnc2)Cc2ccc3ccccc3c2)c1", "tgt": "LN-229", "group.label": "label 0"}
{"smiles.data": "CN(CCNCc1ccccn1)CCNCc1ccccn1", "tgt": "LN-229", "group.label": "label 1"}
{"smiles.data": "O=C(NCCN(CCNC(=O)c1ccccn1)Cc1ccc2ccccc2c1)c1ccccn1", "tgt": "LN-229", "group.label": "label 0"}
{"smiles.data": "c1ccc(CNCCN(CCNCc2ccccn2)Cc2ccc3ccccc3c2)nc1", "tgt": "LN-229", "group.label": "label 1"}
{"smiles.data": "CN(C)c1cccc2c(S(=O)(=O)N(CCNCc3ccccn3)CCNCc3ccccn3)cccc12", "tgt": "LN-229", "group.label": "label 0"}

----------
# method.notes: Metal chelating activity assessed as Zn2+-compound complex formation by measuring stability constant for ZnL(OH) using pre-Zn2+-complexed compound (ZnL) in 0.15M NaCl at 298.1K by potentiometric titration analysis
Entries and their log K values follow.
value.type: log K

{"smiles.data": "O=S(=O)(c1cccc2ccccc12)N(CCNCc1ccccn1)CCNCc1ccccn1", "result": -10}
{"smiles.data": "c1cncc(CNCCN(CCNCc2cccnc2)Cc2ccc3ccccc3c2)c1", "result": -8.6}
{"smiles.data": "c1ccc2cc(CN(CCNCc3ccncc3)CCNCc3ccncc3)ccc2c1", "result": -8.99}
{"smiles.data": "CN(C)c1cccc2c(S(=O)(=O)N(CCNCc3ccccn3)CCNCc3ccccn3)cccc12", "result": -9.55}
{"smiles.data": "c1ccc(CNCCN(CCNCc2ccccn2)Cc2ccc3ccccc3c2)nc1", "result": -10.8}

----------
# method.notes: Metal chelating activity assessed as Zn2+-compound complex formation by measuring stability constant for ZnL in 0.15M NaCl at 298.1K by potentiometric titration analysis
value.type: log K

{"smiles.data": "c1cncc(CNCCN(CCNCc2cccnc2)Cc2ccc3ccccc3c2)c1", "number": 6.04}
{"smiles.data": "O=S(=O)(c1cccc2ccccc12)N(CCNCc1ccccn1)CCNCc1ccccn1", "number": 7.53}
{"smiles.data": "c1ccc(CNCCN(CCNCc2ccccn2)Cc2ccc3ccccc3c2)nc1", "number": 13}
{"smiles.data": "c1ccc2cc(CN(CCNCc3ccncc3)CCNCc3ccncc3)ccc2c1", "number": 4.72}
{"smiles.data": "CN(C)c1cccc2c(S(=O)(=O)N(CCNCc3ccccn3)CCNCc3ccccn3)cccc12", "number": 8.38}
